TESTED_ON: Phospholipase D1 (Homo sapiens) (UniProt Q13393)
Sequence (Q13393 whole entry, looked up): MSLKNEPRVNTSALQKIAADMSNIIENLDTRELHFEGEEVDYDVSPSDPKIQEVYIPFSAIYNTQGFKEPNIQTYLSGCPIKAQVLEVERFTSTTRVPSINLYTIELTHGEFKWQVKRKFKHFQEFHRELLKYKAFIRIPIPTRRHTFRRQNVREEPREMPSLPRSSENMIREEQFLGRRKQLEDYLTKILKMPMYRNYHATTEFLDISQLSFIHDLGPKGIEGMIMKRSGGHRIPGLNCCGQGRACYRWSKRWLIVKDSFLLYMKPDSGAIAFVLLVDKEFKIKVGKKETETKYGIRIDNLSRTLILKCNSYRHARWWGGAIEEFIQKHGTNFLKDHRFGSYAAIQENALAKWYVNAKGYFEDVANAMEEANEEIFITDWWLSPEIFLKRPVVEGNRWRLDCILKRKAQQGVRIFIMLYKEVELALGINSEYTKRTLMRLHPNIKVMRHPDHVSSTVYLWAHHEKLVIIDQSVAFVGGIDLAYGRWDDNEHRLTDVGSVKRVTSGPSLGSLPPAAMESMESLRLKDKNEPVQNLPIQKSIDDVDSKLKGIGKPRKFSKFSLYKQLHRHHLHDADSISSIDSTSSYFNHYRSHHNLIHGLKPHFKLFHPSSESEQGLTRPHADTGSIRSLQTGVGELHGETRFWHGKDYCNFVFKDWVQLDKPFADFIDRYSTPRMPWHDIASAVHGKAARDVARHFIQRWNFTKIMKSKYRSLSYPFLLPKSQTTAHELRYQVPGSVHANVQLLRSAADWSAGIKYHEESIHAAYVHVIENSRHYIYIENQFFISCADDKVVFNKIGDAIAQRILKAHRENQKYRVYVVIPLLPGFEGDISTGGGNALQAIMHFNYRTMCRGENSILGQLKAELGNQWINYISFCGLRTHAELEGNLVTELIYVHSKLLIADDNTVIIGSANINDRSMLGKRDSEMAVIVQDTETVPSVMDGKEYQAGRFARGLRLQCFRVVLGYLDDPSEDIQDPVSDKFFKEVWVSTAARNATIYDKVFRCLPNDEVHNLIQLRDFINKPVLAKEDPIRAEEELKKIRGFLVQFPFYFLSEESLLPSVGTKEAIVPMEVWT
TEST_DESCRIPTION: cellular phospholipase D1 activity inhibition – cell-based (AID 743388)
MEASUREMENT_CONTEXT: Calu-1 cells, PMA-stimulated, PtdBuOH-d9 by mass spectrometry, 30 min; at 20 µM
Active and inactive are the calls of the source. The rule behind the calls is not given here.
Field 'call' accepts t (active), f (inactive)

Illustrative cases are given below, each with its answer.
SMILES_INPUT	TESTED_ON	CLASS_LABEL
Cc1cc(Br)cnc1C(=O)NCCN1CCC2(CC1)C(=O)NCN2Cc1cccnc1	Phospholipase D1 (Homo sapiens) (UniProt Q13393)	f
O=C(NCCN1CCC2(CC1)C(=O)NCN2Cc1cccnc1)c1cc2cc(F)ccc2[nH]1	Phospholipase D1 (Homo sapiens) (UniProt Q13393)	f
O=C(NCCN1CCC2(CC1)C(=O)NCN2Cc1cccnc1)c1ccc(F)cc1F	Phospholipase D1 (Homo sapiens) (UniProt Q13393)	f
O=C(NCCN1CCC2(CC1)C(=O)NCN2Cc1cccnc1)c1c(F)ccc(Cl)c1F	Phospholipase D1 (Homo sapiens) (UniProt Q13393)	f
O=C(NCCN1CCC2(CC1)C(=O)NCN2Cc1cccnc1)c1cccc2cccnc12	Phospholipase D1 (Homo sapiens) (UniProt Q13393)	f

Prompt line: Hi team, can someone confirm the assay call for O=C(NCCN1CCC2(CC1)C(=O)NCN2Cc1cccc(Cl)c1)c1ccc2ccccc2c1 ?
Response line: t

Prompt line: Hi team, can someone confirm the assay call for O=C(NCCN1CCC2(CC1)C(=O)NCN2Cc1cccnc1)c1cc(F)cc(F)c1 ?
Response line: f

Prompt line: Hi team, can someone confirm the assay call for O=C(NCCN1CCC2(CC1)C(=O)NCN2c1ccnc(Cl)c1)c1ccc2ccccc2c1 ?
Response line: f

Prompt line: Hi team, can someone confirm the assay call for O=C(NCCN1CCC2(CC1)NCNC2=O)c1ccc2ccccc2c1 ?
Response line: f

Prompt line: Hi team, can someone confirm the assay call for O=C(NCCN1CCC2(CC1)C(=O)NCN2Cc1cccnc1)c1cccs1 ?
Response line: f

Prompt line: Hi team, can someone confirm the assay call for O=C(NCCN1CCC2(CC1)C(=O)NCN2Cc1cccnc1)c1ccnc2ccccc12 ?
Response line: f
